Every entry's value here was drawn from paper PMC7367873.

Tested on: GFP-14-3-3β and its binding proteins
Test: GFP-14-3-3β co-IP with LC-MS/MS label-free quantification, untreated versus PP1c-treated
Set-up: species or system human
Details: log2 difference; pairwise comparison PP1 vs untreated, label-free quantification, 3 replicates each
Measured attribute: Difference (log2), PP1 vs untreated
A bare number is all that is needed in reply.

Molecule | Val
BAG2 (protein, UniProt O95816 2-211, looked up) BAG family molecular …: AQAKINAKANEGRFCRSSSMADRSSRLLESLDQLELRVEALREAATAVEQEKEILLEMIHSIQNSQDMRQISDGEREELNLTANRLMGRTLTVEVSVETIRNPQQQESLKHATRIIDEVVNKFLDDLGNAKSHLMSLYSACSSEVPHGPVDQKFQSIVIGCALEDQKKIKRRLETLLRNIENSDKAIKLLEHSKGAGSKTLQQNAESRFN | 2.1096

Difference (log2), PP1 vs untreated in this record for TRAM1 (protein, UniProt Q15629 1-374, looked up) Translocating …: MAIRKKSTKSPPVLSHEFVLQNHADIVSCVAMVFLLGLMFEITAKASIIFVTLQYNVTLPATEEQATESVSLYYYGIKDLATVFFYMLVAIIIHAVIQEYMLDKINRRMHFSKTKHSKFNESGQLSAFYLFACVWGTFILISENYISDPTILWRAYPHNLMTFQMKFFYISQLAYWLHAFPELYFQKTKKEDIPRQLVYIGLYLFHIAGAYLLNLNHLGLVLLVLHYFVEFLFHISRLFYFSNEKYQKGFSLWAVLFVLGRLLTLILSVLTVGFGLARAENQKLDFSTGNFNVLAVRIAVLASICVTQAFMMWKFINFQLRRWREHSAFQAPAVKKKPTVTKGRSSKKGTENGVNGTLTSNVADSPRNKKEKSS : 1.521
